Tested on: CAKI-1 renal
ASSAY INFO: NCI tumour cell line growth inhibition, 48 h
Listed here: items and their measured TGI.

| MOLECULE | STUDY SYSTEM | REPORTED PROPERTY | ASSAY VALUE |
| --- | --- | --- | --- |
| COC(=O)c1c(O)ccc2c1c1c(n2Cc2cc(OC)cc(OC)c2)C(=O)c2ccccc2C1 | CAKI-1 renal | TGI | 63.7 µM |
| CCN(CC)CCCN1CCc2c([nH]c3ccccc23)C1c1cccnc1 (stereo unspecified) | CAKI-1 renal | TGI | > 100 µM |
| CC1(C)CC(=O)C(C=NC(=S)c2ccccc2)=C(O)C1 | CAKI-1 renal | TGI | > 100 µM |
| CC(=O)N=C1N(/C=C2\C(=O)Oc3ccccc3C2=O)C(=O)/C(=C/c2cccc(Cl)c2Cl)N1C | CAKI-1 renal | TGI | 65.8 µM |
| c1ccc2cc(-c3cc4ccccc4s3)ccc2c1 | CAKI-1 renal | TGI | > 100 µM |

Could you now consider this next molecule?
For O=C1c2ccccc2C(=O)c2c(NCC(O)CO)ccc(NCC(O)CO)c21 (stereo unspecified) , what is its reported TGI?
> 100 µM

src = PubChem BioAssay (NCI)
